tgt: human μ-opiate receptor (Homo sapiens, UniProt P35372)
Sequence (P35372 whole entry): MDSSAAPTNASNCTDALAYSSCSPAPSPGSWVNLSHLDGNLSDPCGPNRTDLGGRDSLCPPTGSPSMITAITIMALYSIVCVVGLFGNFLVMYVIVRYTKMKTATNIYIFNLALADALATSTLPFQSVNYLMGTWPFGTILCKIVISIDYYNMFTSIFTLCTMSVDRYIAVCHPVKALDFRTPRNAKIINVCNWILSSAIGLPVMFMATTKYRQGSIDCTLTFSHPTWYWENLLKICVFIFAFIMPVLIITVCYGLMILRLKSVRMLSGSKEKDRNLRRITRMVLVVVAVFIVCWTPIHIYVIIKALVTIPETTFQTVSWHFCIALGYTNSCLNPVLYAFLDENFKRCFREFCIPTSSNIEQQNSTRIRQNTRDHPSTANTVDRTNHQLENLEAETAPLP
test.summary: [35S]GTP-γ-S functional binding assay, CHO hMOR cells
Format: biochemical
particulars: read-out: μ-Agonism Emax %
Measured Emax values are reported for all entries that follow.
Please state the value followed by its unit.

As a guide, the following entries are already answered.
given.smiles	result
CC[C@@]12CCN(CCc3ccccc3)C[C@@H]1Oc1ccc(O)cc12	84%
CC[C@@]12CCNC[C@@H]1Oc1ccc(O)cc12	97%
CC[C@@]12CCN(C[C@H](O)c3ccccc3)C[C@@H]1Oc1ccc(O)cc12	36%
CC[C@@]12CCN(C[C@@H](O)c3ccccc3)C[C@@H]1Oc1ccc(O)cc12	100%

Inquiry: # query: Emax | item CC[C@@]12CCN(C)C[C@@H]1Oc1ccc(O)cc12 | system: human μ-opiate receptor (Homo sapiens, UniProt P35372)
Reply text: 45%
